- STUDY_TARGET: Gal4 DNA binding domain fused to the LBD of LXRβ in HEK293 cells (Homo sapiens (Human))
- Sequence (P55055 222-460 limits assumed): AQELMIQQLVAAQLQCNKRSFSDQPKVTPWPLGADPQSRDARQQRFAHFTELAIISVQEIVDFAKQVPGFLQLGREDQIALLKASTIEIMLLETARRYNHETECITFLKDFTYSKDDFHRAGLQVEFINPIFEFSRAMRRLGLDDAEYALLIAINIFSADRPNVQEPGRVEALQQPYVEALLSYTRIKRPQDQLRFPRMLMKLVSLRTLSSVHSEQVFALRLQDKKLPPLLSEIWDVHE
- EXPERIMENT_SUMMARY: cell-based
- CONDITIONS_USED: agonist mode
Listing of recorded Cell LXRβ efficacy by entry.
MEASURED_QUANTITY: Cell LXRβ efficacy

MOLECULE	MEASURED_QUANTITY	REPORTED
Cc1ccccc1[C@@H]1CN(c2cccc(S(C)(=O)=O)c2)CCN1Cc1ccc(C(F)(F)F)nc1 (single isomer, unassigned) [46-45]	Cell LXRβ efficacy	7516 (44) %
NS(=O)(=O)c1cccc(N2CCN(C[C@H]3CC[C@@H](C(F)(F)F)CC3)[C@H](c3ccccc3)C2)c1 (single isomer, unassigned) [48-34]	Cell LXRβ efficacy	32%
NS(=O)(=O)c1cccc(N2CCN(C[C@H]3CC[C@@H](C(F)(F)F)CC3)[C@@H](c3ccccc3)C2)c1 (single isomer, unassigned) [48-35]	Cell LXRβ efficacy	27%
CC(C)[C@@H]1CN(c2ccc(C(N)=O)c(S(C)(=O)=O)c2Cl)CCN1c1nccc(C(F)(F)F)n1 [4-3]	Cell LXRβ efficacy	1679 (12) %
CC(C)[C@@H]1CN(c2ccc(CO)c(S(C)(=O)=O)c2)CCN1c1nc(C(F)(F)F)c(CO)o1 [11-16]	Cell LXRβ efficacy	467 (76) %
CC(C)[C@@H]1CN(c2ccc(F)c(S(C)(=O)=O)c2)CCN1c1cncc(C(F)(F)F)c1 [Cpd No 20-1]	Cell LXRβ efficacy	141 (75) %
NS(=O)(=O)c1cccc(N2CCN(C[C@H]3CC[C@H](C(F)(F)F)CC3)[C@@H](c3ccccc3)C2)c1 (single isomer, unassigned) [48-37]	Cell LXRβ efficacy	19%
CO[C@H](C)[C@@H]1CN(c2ccc(CO)c(S(C)(=O)=O)c2)CCN1c1ncc(CO)c(C(F)(F)F)n1 (single isomer, unassigned) [11-5]	Cell LXRβ efficacy	363 (16) %
CS(=O)(=O)c1cccc(N2CCN(Cc3ccc(C(F)(F)F)cn3)[C@@H](c3ccccc3)C2)c1 [46-64]	Cell LXRβ efficacy	5804 (13) %
CC(C)[C@@H]1CN(c2ccc(CO)c(S(C)(=O)=O)c2)CCN1c1nc(C(F)(F)F)c(C(C)(C)O)o1 [26-2]	Cell LXRβ efficacy	329 (74) %
CC(C)[C@@H]1CN(c2cc(F)c(CO)c(S(C)(=O)=O)c2)CCN1c1ncc(C(N)=O)c(C(F)(F)F)n1 [Cpd No 17-28]	Cell LXRβ efficacy	20 (9) %
C=C(C)c1cnc(N2CCN(c3ccc(CO)c(S(C)(=O)=O)c3)C[C@H]2C(C)C)nc1C(F)(F)F [14-2]	Cell LXRβ efficacy	28 (42) %
CS(=O)(=O)c1cccc(N2CCN(Cc3ccc(C(F)(F)F)c(Br)c3)C(c3ccccc3)C2)c1 (stereo not drawn) [46-37]	Cell LXRβ efficacy	1194 (55) %
CS(=O)(=O)c1cccc(N2CCN(C[C@H]3CC[C@H](C(F)(F)F)CC3)[C@H](c3ccccc3)C2)c1 (single isomer, unassigned) [48-32]	Cell LXRβ efficacy	15%
CC(C)[C@@H]1CN(c2cccc(S(N)(=O)=O)c2)CCN1c1nccc(C(F)(F)F)n1 [7-60]	Cell LXRβ efficacy	59 (75) %
CCOC(=O)c1cnc(N2CCN(c3ccc(-c4nnc(C)s4)c(S(C)(=O)=O)c3)C[C@H]2C(C)C)nc1C(F)(F)F [9-13]	Cell LXRβ efficacy	1204 (34) %
CS(=O)(=O)c1cccc(N2CCN(C[C@H]3CC[C@H](C(F)(F)F)CC3)[C@@H](c3ccccc3)C2)c1 (single isomer, unassigned) [48-33]	Cell LXRβ efficacy	32%
CC(C)[C@@H]1CN(c2ccc(F)c(S(N)(=O)=O)c2)CCN1c1ncc(CO)c(C(F)(F)F)n1 [11-2]	Cell LXRβ efficacy	243 (46) %
COC(=O)c1cnc(N2CCN(c3ccc(F)c(S(C)(=O)=O)c3)C[C@H]2C(C)C)nc1 [7-14]	Cell LXRβ efficacy	379 (17) %
CC[C@H](O)c1cnc(N2CCN(c3ccc(F)c(S(C)(=O)=O)c3)C[C@H]2C(C)C)nc1C(F)(F)F (single isomer, unassigned) [12-6]	Cell LXRβ efficacy	289 (29) %
CC(C)(O)c1cnc(N2CCN(c3ccc(F)c(S(C)(=O)=O)c3)CC2C(C)(C)C)nc1C(F)(F)F (stereo not drawn) [10-4]	Cell LXRβ efficacy	128 (13) %
CC(C)[C@@H]1CN(c2ccc(F)c(S(C)(=O)=O)c2)CCN1c1ncc([C@H](C)O)c(C(F)(F)F)n1 [Cpd No 12-2]	Cell LXRβ efficacy	117 (36) %
CC(C)[C@@H]1CN(c2ccc(F)c(S(C)(=O)=O)c2)CCN1c1nccc(C#N)n1 [7-7]	Cell LXRβ efficacy	404 (60) %
CC(C)[C@@H]1CN(c2ccc(F)c(S(C)(=O)=O)c2)CCN1c1ncc(C(F)(F)F)c(C(C)(C)O)n1 [Cpd No 39-1]	Cell LXRβ efficacy	86 (62) %
CC(C)[C@@H]1CN(c2ccc(CO)c(S(C)(=O)=O)c2)CCN1c1nc(C(F)(F)F)c(C(N)=O)s1 [17-35]	Cell LXRβ efficacy	161 (23) %
C[C@](O)(c1ccc(CN2CCN(c3cccc(S(C)(=O)=O)c3)C[C@@H]2c2ccccc2)cc1)C(F)(F)F (single isomer, unassigned) [46-28]	Cell LXRβ efficacy	1885 (16) %
NS(=O)(=O)c1cccc(N2CCN(C[C@H]3CC[C@H](C(F)F)CC3)[C@H](c3ccccc3)C2)c1 (single isomer, unassigned) [48-20]	Cell LXRβ efficacy	6%
